molecular target: HCV genotype 1b (BK) NS3 modified enzyme with a R155K mutation (Hepatitis C virus genotype 1b, UniProt P26663, R1181K); construct: HCV genotype 1b (BK) NS3 modified enzyme; assay: HCV NS3 protease time-resolved fluorescence (TRF) assay, genotype 1b R155K; type: biochemical; conditions: Ki 1b R155K, genotype 1b (BK) NS3 R155K; single value
Assay Endpoint: Ki

compound=C=C[C@@H]1C[C@]1(NC(=O)[C@@H]1C[C@@H]2CN1C(=O)[C@H](C1CCCC1)NC(=O)O[C@@H]1CCC[C@H]1CC/C=C/Cc1c(nc3ccccc3c1O)O2)C(=O)NS(=O)(=O)C1CC1 recorded_result="< 16 pM"
compound=CC1(S(=O)(=O)NC(=O)[C@@]23C[C@H]2/C=C\CCCCC[C@@H]2NC(=O)O[C@@H]4C[C@H]4CCC/C=C/c4c(nc5ccccc5c4OCCCN4CCOCC4)O[C@@H]4C[C@@H](C(=O)N3)N(C4)C2=O)CC1 recorded_result="490 pM"
compound=C=C[C@@H]1C[C@]1(NC(=O)[C@@H]1C[C@@H]2CN1C(=O)[C@H](C(C)(C)C)NC(=O)O[C@@H]1C[C@H]1CCCCCc1c(nc3ccccc3c1OCCCNC1CCOCC1)O2)C(=O)NS(=O)(=O)C1(C)CC1 recorded_result="65 pM"
compound=C=C[C@@H]1C[C@]1(NC(=O)[C@@H]1C[C@@H]2CN1C(=O)[C@H](C1CCCC1)NC(=O)O[C@@H]1CCC[C@H]1CC/C=C/Cc1c(nc3ccccc3c1OCCCN1CCNC1=O)O2)C(=O)NS(=O)(=O)C1(C)CC1 recorded_result="120 pM"
compound=C=C[C@@H]1C[C@]1(NC(=O)[C@@H]1C[C@@H]2CN1C(=O)[C@H](C(C)(C)C)NC(=O)O[C@@H]1CCC[C@H]1CCCCCc1c(nc3ccccc3c1O)O2)C(=O)NS(=O)(=O)C1(COCc2ccccc2)CC1 recorded_result="150 pM"
compound="C=CC1C[C@]1(NC(=O)[C@@H]1C[C@@H]2CN1C(=O)[C@H](C1CCCC1)NC(=O)O[C@@H]1CCC[C@H]1CC/C=C/Cc1c(nc3ccccc3c1OCCN1CCCCC1)O2)C(=O)NS(=O)(=O)C1CC1 (stereo partly shown)" recorded_result="290 pM"
compound=C=C[C@@H]1C[C@]1(NC(=O)[C@@H]1C[C@@H]2CN1C(=O)[C@H](C(C)(C)C)NC(=O)O[C@@H]1C[C@H]1CCCCCc1c(nc3ccccc3c1OCCCN1CC(F)(F)C1)O2)C(=O)NS(=O)(=O)C1(C)CC1 recorded_result="200 pM"
compound=C=C[C@@H]1C[C@]1(NC(=O)[C@@H]1C[C@@H]2CN1C(=O)[C@H](C(C)(C)C)NC(=O)O[C@@H]1C[C@H]1CCCCCc1c(nc3ccccc3c1OCCCN1CC(OC)C1)O2)C(=O)NS(=O)(=O)C1(C)CC1 recorded_result="49 pM"
compound=C=C[C@@H]1C[C@]1(NC(=O)[C@@H]1C[C@@H]2CN1C(=O)[C@H](C1CCCC1)NC(=O)O[C@@H]1C[C@H]1CCCCCc1c(nc3ccccc3c1OCCN1CCOCC1)O2)C(=O)NS(=O)(=O)C1(C)CC1 recorded_result="380 pM"
compound=C=C[C@@H]1C[C@]1(NC(=O)[C@@H]1C[C@@H]2CN1C(=O)[C@H](C(C)(C)C)NC(=O)O[C@@H]1C[C@H]1CCCCCc1c(nc3c(F)cccc3c1OCCn1ccnc1)O2)C(=O)NS(=O)(=O)C1(C)CC1 recorded_result="21 pM"
